- RUN DESCRIPTION: physchem
- DETAILS: pH 7.4, aqueous buffer, kinetic from dmso stock, Max Solubility
Recorded solubility at 24 h for the following compounds

Solved entries (count: 6):
CCNC(=O)Nc1nc2cc(-c3cnc(N4CCC(C)(C(=O)O)CC4)nc3)cc(/C(C)=N/O)c2s1 ≥ 800 µg/mL
C=CCC1(C(=O)O)CCN(c2ncc(-c3cc(-c4ccccn4)c4sc(NC(=O)NCC)nc4c3)cn2)CC1 ≥ 800 µg/mL
CCNC(=O)Nc1nc2cc(-c3cnc(N4CCC(C)(C(=O)O)CC4)nc3)cc(COCCOC)c2s1 ≥ 800 µg/mL
CCNC(=O)Nc1nc2cc(-c3cnc(N4CCC(C)(C(=O)O)CC4)nc3)cc(C#CC3CCCC3)c2s1 ≥ 800 µg/mL
CCNC(=O)Nc1nc2cc(-c3cnc(N4CCC(C)(C(=O)O)CC4)nc3)cc(-c3cc(=O)n(CCOC)cn3)c2s1 400 µg/mL
CCNC(=O)Nc1nc2cc(-c3cnc(N4CCC(C)(C(=O)O)CC4)nc3)cc(-c3cccc(OC)n3)c2s1 ≥ 800 µg/mL

Q) Answer with the recorded solubility at 24 h for the compound listed here: `CCNC(=O)Nc1nc2cc(-c3cnc(N4CCC(C)(C(=O)O)CC4)nc3)cc(-c3ncc(C)cc3C#N)c2s1`
A) 12.5 µg/mL
